Test system: A-375
experimentalDetails: Induction of apoptosis in human A375 cells assessed as morphological changes at IC50 concentration after 44 hrs using acridine orange and ethidium bromide staining by fluorescence microscopy
Assay type: functional, cell-based
Active and inactive are the calls of the source. The calls are words filed in the database; no cut-off is given here.
readout: Activity

INSERT INTO assay_data (smilesinput, readout, endpointvalue) VALUES
  ('Cc1ccc2nnc(C(=O)NCCCN3CCN(CCCNC(=O)c4nnc5ccc(C)cc5c4N)CC3)c(N)c2c1', 'Activity', 'inactive'),
  ('Nc1c(C(=O)NCCCOCCCCOCCCNC(=O)c2cnc3ccccc3c2N)cnc2ccccc12', 'Activity', 'inactive'),
  ('Nc1c(C(=O)NCCCN2CCN(CCCNC(=O)c3cnc4ccccc4c3N)CC2)cnc2ccccc12', 'Activity', 'inactive'),
  ('CN(CCCNC(=O)c1cnc2ccccc2c1N)CCCNC(=O)c1cnc2ccccc2c1N', 'Activity', 'inactive'),
  ('Cc1ccc2nnc(C(=O)NCCCN(C)CCCNC(=O)c3nnc4ccc(C)cc4c3N)c(N)c2c1', 'Activity', 'inactive'),
  ('Cc1ccc2nnc(C(=O)NCCCOCCCCOCCCNC(=O)c3nnc4ccc(C)cc4c3N)c(N)c2c1', 'Activity', 'inactive');

---

Tested on: A-375
experimentalDetails: Induction of necrosis in human A375 cells assessed as morphological changes at IC50 concentration after 44 hrs using acridine orange and ethidium bromide staining by fluorescence microscopy
Format: functional, cell-based
Calls of active or inactive are those of the source. The calls are words filed in the database; no cut-off is given here.
readout: Activity

INSERT INTO results (smilesinput, readout, endpointvalue) VALUES
  ('Nc1c(C(=O)NCCCN2CCN(CCCNC(=O)c3cnc4ccccc4c3N)CC2)cnc2ccccc12', 'Activity', 'inactive'),
  ('Nc1c(C(=O)NCCCOCCCCOCCCNC(=O)c2cnc3ccccc3c2N)cnc2ccccc12', 'Activity', 'inactive'),
  ('Cc1ccc2nnc(C(=O)NCCCN(C)CCCNC(=O)c3nnc4ccc(C)cc4c3N)c(N)c2c1', 'Activity', 'inactive'),
  ('CN(CCCNC(=O)c1cnc2ccccc2c1N)CCCNC(=O)c1cnc2ccccc2c1N', 'Activity', 'inactive'),
  ('Cc1ccc2nnc(C(=O)NCCCOCCCCOCCCNC(=O)c3nnc4ccc(C)cc4c3N)c(N)c2c1', 'Activity', 'inactive'),
  ('Cc1ccc2nnc(C(=O)NCCCN3CCN(CCCNC(=O)c4nnc5ccc(C)cc5c4N)CC3)c(N)c2c1', 'Activity', 'inactive');

---

Test system: A-375
experimentalDetails: Cytotoxicity against human A375 cells after 44 hrs by MTT assay
Format: functional, cell-based
conditionsUsed: A-375, 44 h
pIC50: −log10 of the molar value.
// pIC50 lookup, one value per entry
readout: pIC50

INSERT INTO results (smilesinput, readout, endpointvalue) VALUES
  ('Cc1ccc2nnc(C(=O)NCCCN(C)CCCNC(=O)c3nnc4ccc(C)cc4c3N)c(N)c2c1', 'pIC50', 3.94),
  ('Nc1c(C(=O)NCCCN2CCN(CCCNC(=O)c3cnc4ccccc4c3N)CC2)cnc2ccccc12', 'pIC50', 4.77),
  ('Cc1ccc2nnc(C(=O)NCCCOCCCCOCCCNC(=O)c3nnc4ccc(C)cc4c3N)c(N)c2c1', 'pIC50', 4.00),
  ('Cc1ccc2nnc(C(=O)NCCCN3CCN(CCCNC(=O)c4nnc5ccc(C)cc5c4N)CC3)c(N)c2c1', 'pIC50', 4.50),
  ('Nc1c(C(=O)NCCCOCCCCOCCCNC(=O)c2cnc3ccccc3c2N)cnc2ccccc12', 'pIC50', 4.81),
  ('CN(CCCNC(=O)c1cnc2ccccc2c1N)CCCNC(=O)c1cnc2ccccc2c1N', 'pIC50', 4.06);
